Test system: K98450-129-R-PDC complex spheroid growth, percent test/control
METHOD: Anticancer human tumor K98450-129-R-PDC patient-derived colon adenocarcinoma cell line growth inhibition [RAS]
CONDITION_CONTEXT: curve of first compound; second compound 0.000949 µM
pIC50: −log10 of the molar value.
MEASURE_NAME: pIC50

>  <MOLECULE>
CC(=O)OC12COC1CC(O)C1(C)C(=O)C(O)C3=C(C)C(OC(=O)C(O)C(NC(=O)OC(C)(C)C)c4ccccc4)CC(O)(C(OC(=O)c4ccccc4)C21)C3(C)C (centres undefined) + CCn1c(-c2cc(N3CCN(C)CC3)cnc2C(C)OC)c2c3cc(ccc31)-c1csc(n1)CC(NC(=O)C1CC1C)C(=O)N1CCCC(N1)C(=O)OCC(C)(C)C2

>  <ASSAYED_TARGET>
K98450-129-R-PDC complex spheroid growth, percent test/control

>  <pIC50>
6.16

$$$$

[I] Nc1ccn(C2OC(CO)C(O)C2(F)F)c(=O)n1 (centres undefined) + CCn1c(-c2cccnc2C(C)OC)c2c3cc(ccc31)N1CCOC(CC(NC(=O)C(C(C)C)N(C)C(=O)C3(F)CCN(C(=O)C#CC(C)(C)N(C)C)CC3)C(=O)N3CCCC(N3)C(=O)OCC(C)(C)C2)C1
[II] CCC(CC)c1cc(NC2CCC(N)C2)n2nccc2n1 (centres undefined) + CCn1c(-c2cccnc2C(C)OC)c2c3cc(ccc31)N1CCOC(CC(NC(=O)C(C(C)C)N(C)C(=O)C3(F)CCN(C(=O)C#CC(C)(C)N(C)C)CC3)C(=O)N3CCCC(N3)C(=O)OCC(C)(C)C2)C1
Pick one: I or II . Which has the bigger pIC50 number? Write the label of whichever entry you select.
I

====

System: K98450-129-R-PDC complex spheroid growth, percent test/control
METHOD: Anticancer human tumor K98450-129-R-PDC cell line growth inhibition [RAS];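 further: spheroids exposed to agents for seven days before the viability readout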
CONDITION_CONTEXT: curve of first compound; second compound 0.000949 µM
MEASURE_NAME: IC50 (nM)

[A] CCC(CC)c1cc(NC2CCC(N)C2)n2nccc2n1 (centres undefined) + CCn1c(-c2cc(N3CCN(C)CC3)cnc2C(C)OC)c2c3cc(ccc31)-c1csc(n1)CC(NC(=O)C1CC1C)C(=O)N1CCCC(N1)C(=O)OCC(C)(C)C2
[B] O=C(c1ccc(F)c(F)c1Nc1ccc(I)cc1F)N1CC(O)([C@@H]2CCCCN2)C1 + CCn1c(-c2cc(N3CCN(C)CC3)cnc2C(C)OC)c2c3cc(ccc31)-c1csc(n1)CC(NC(=O)C1CC1C)C(=O)N1CCCC(N1)C(=O)OCC(C)(C)C2
Min IC50? A | B Let me know the label of the one you choose.
B
(B: 118 nM, A: 4120 nM)

====

Tested on: K98450-129-R-PDC complex spheroid growth, percent test/control
METHOD: Anticancer human tumor K98450-129-R-PDC cell line growth inhibition [RAS];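 further: spheroids exposed to agents for seven days before the viability readout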;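 on viability, T/C: luminescence used as a proxy for viable cell amount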
CONDITION_CONTEXT: second compound 0.000949 µM; first compound 0.0316 µM; stronger effect = lower value
Text: RAS pathway inhibitors in Combinations in Complex Spheroids A high-throughput screen of multi-cell type tumor spheroids was designed to identify active combinations of RAS pathway inhibitors and targeted small molecules. Complex spheroids include a stromal component modeled by human endothelial cells (HUVEC) and fibroblasts modeled by human mesenchymal stem cells (MSCs). […] Compounds. […] If the clinical Cmax for an agent had not been determined, the highest concentration tested was 10 microM. […]
MEASURE_NAME: viability, T/C (%)
Answer with a number only, understood to be in %.

Guide cases for viability, T/C, answers given:
>  <COMPOUND>
CCN1CCN(Cc2ccc(Nc3ncc(F)c(-c4cc(F)c5nc(C)n(C(C)C)c5c4)n3)nc2)CC1 + CCn1c(-c2cc(N3CCN(C)CC3)cnc2C(C)OC)c2c3cc(ccc31)-c1csc(n1)CC(NC(=O)C1CC1C)C(=O)N1CCCC(N1)C(=O)OCC(C)(C)C2

>  <viability, T/C / %>
90.9

$$$$
>  <COMPOUND>
NC1c2ccccc2OC12CCN(c1cnc3c(N4CCCc5ncccc54)n[nH]c3n1)CC2 (stereo not given) + CCn1c(-c2cc(N3CCN(C)CC3)cnc2C(C)OC)c2c3cc(ccc31)-c1csc(n1)CC(NC(=O)C1CC1C)C(=O)N1CCCC(N1)C(=O)OCC(C)(C)C2

>  <viability, T/C / %>
85.1

$$$$
>  <COMPOUND>
Cc1nc(N2CCC3(CC2)COC(C)C3N)c(CO)nc1Sc1ccnc(N)c1Cl (stereo not given) + CCn1c(-c2cccnc2C(C)OC)c2c3cc(ccc31)N1CCOC(CC(NC(=O)C(C(C)C)N(C)C(=O)C3(F)CCN(C(=O)C#CC(C)(C)N(C)C)CC3)C(=O)N3CCCC(N3)C(=O)OCC(C)(C)C2)C1

>  <viability, T/C / %>
71.8

$$$$
>  <COMPOUND>
C=CC(=O)Nc1cc(Nc2nccc(-c3cn(C)c4ccccc34)n2)c(OC)cc1N(C)CCN(C)C + CCn1c(-c2cccnc2C(C)OC)c2c3cc(ccc31)N1CCOC(CC(NC(=O)C(C(C)C)N(C)C(=O)C3(F)CCN(C(=O)C#CC(C)(C)N(C)C)CC3)C(=O)N3CCCC(N3)C(=O)OCC(C)(C)C2)C1

>  <viability, T/C / %>
77.4

$$$$
>  <COMPOUND>
C[C@@H](NC(=O)c1ncnc(N)c1Cl)c1ncc(C(=O)Nc2cc(C(F)(F)F)c(Cl)cn2)s1 + CCn1c(-c2cccnc2C(C)OC)c2c3cc(ccc31)N1CCOC(CC(NC(=O)C(C(C)C)N(C)C(=O)C3(F)CCN(C(=O)C#CC(C)(C)N(C)C)CC3)C(=O)N3CCCC(N3)C(=O)OCC(C)(C)C2)C1

>  <viability, T/C / %>
87.9

$$$$
>  <COMPOUND>
CCC(CC)c1cc(NC2CCC(N)C2)n2nccc2n1 (stereo not given) + CCn1c(-c2cc(N3CCN(C)CC3)cnc2C(C)OC)c2c3cc(ccc31)-c1csc(n1)CC(NC(=O)C1CC1C)C(=O)N1CCCC(N1)C(=O)OCC(C)(C)C2

>  <viability, T/C / %>
97.9

$$$$
>  <COMPOUND>
C=CC(=O)N1CCN(c2nc(OCC3CCCN3C)nc3c(F)c(-c4nc(N)cc(C)c4C(F)(F)F)c(Cl)cc23)C(C)C1 (stereo not given) + CCn1c(-c2cc(N3CCN(C)CC3)cnc2C(C)OC)c2c3cc(ccc31)-c1csc(n1)CC(NC(=O)C1CC1C)C(=O)N1CCCC(N1)C(=O)OCC(C)(C)C2

>  <viability, T/C / %>
69

$$$$
>  <COMPOUND>
CCC(CC)c1cc(NC2CCC(N)C2)n2nccc2n1 (stereo not given) + CCn1c(-c2cccnc2C(C)OC)c2c3cc(ccc31)N1CCOC(CC(NC(=O)C(C(C)C)N(C)C(=O)C3(F)CCN(C(=O)C#CC(C)(C)N(C)C)CC3)C(=O)N3CCCC(N3)C(=O)OCC(C)(C)C2)C1

>  <viability, T/C / %>
77.1

$$$$
>  <COMPOUND>
C=CC(=O)N1CCN(c2nc(OCC3CCCN3C)nc3c(F)c(-c4nc(N)cc(C)c4C(F)(F)F)c(Cl)cc23)C(C)C1 (stereo not given) + CCn1c(-c2cccnc2C(C)OC)c2c3cc(ccc31)N1CCOC(CC(NC(=O)C(C(C)C)N(C)C(=O)C3(F)CCN(C(=O)C#CC(C)(C)N(C)C)CC3)C(=O)N3CCCC(N3)C(=O)OCC(C)(C)C2)C1

>  <viability, T/C / %>
63.1

$$$$
>  <COMPOUND>
Cc1nc(N2CCC3(CC2)COC(C)C3N)c(CO)nc1Sc1ccnc(N)c1Cl (stereo not given) + CCn1c(-c2cc(N3CCN(C)CC3)cnc2C(C)OC)c2c3cc(ccc31)-c1csc(n1)CC(NC(=O)C1CC1C)C(=O)N1CCCC(N1)C(=O)OCC(C)(C)C2

>  <viability, T/C / %>
99.3

$$$$

Item: CC1(O)CCCC1n1c(=O)c(C(F)F)cc2cnc(NC3CCN(S(C)(=O)=O)CC3)nc21 (stereo not given) + CCn1c(-c2cc(N3CCN(C)CC3)cnc2C(C)OC)c2c3cc(ccc31)-c1csc(n1)CC(NC(=O)C1CC1C)C(=O)N1CCCC(N1)C(=O)OCC(C)(C)C2 Test system: K98450-129-R-PDC complex spheroid growth, percent test/control Read-out: viability, T/C Value: ?
97.3

Request: viability, T/C, test system K98450-129-R-PDC complex spheroid growth, percent test/control, entry CC(Nc1ccc2c(c1)OCCn1cc(N3C(=O)OCC3C(F)F)nc1-2)C(N)=O (stereo not given) + CCn1c(-c2cccnc2C(C)OC)c2c3cc(ccc31)N1CCOC(CC(NC(=O)C(C(C)C)N(C)C(=O)C3(F)CCN(C(=O)C#CC(C)(C)N(C)C)CC3)C(=O)N3CCCC(N3)C(=O)OCC(C)(C)C2)C1
77.4

Form field - read-out: viability, T/C; system: K98450-129-R-PDC complex spheroid growth, percent test/control; submitted item: CC1(O)CCCC1n1c(=O)c(C(F)F)cc2cnc(NC3CCN(S(C)(=O)=O)CC3)nc21 (stereo not given) + CCn1c(-c2cccnc2C(C)OC)c2c3cc(ccc31)N1CCOC(CC(NC(=O)C(C(C)C)N(C)C(=O)C3(F)CCN(C(=O)C#CC(C)(C)N(C)C)CC3)C(=O)N3CCCC(N3)C(=O)OCC(C)(C)C2)C1
76.1

Lab request: please report viability, T/C under test system K98450-129-R-PDC complex spheroid growth, percent test/control for C[C@@H](NC(=O)c1ncnc(N)c1Cl)c1ncc(C(=O)Nc2cc(C(F)(F)F)c(Cl)cn2)s1 + CCn1c(-c2cc(N3CCN(C)CC3)cnc2C(C)OC)c2c3cc(ccc31)-c1csc(n1)CC(NC(=O)C1CC1C)C(=O)N1CCCC(N1)C(=O)OCC(C)(C)C2
105

Lab request: please report viability, T/C under test system K98450-129-R-PDC complex spheroid growth, percent test/control for CC(C)n1nc(-c2ccc3oc(N)nc3c2)c2c(N)ncnc21 + CCn1c(-c2cc(N3CCN(C)CC3)cnc2C(C)OC)c2c3cc(ccc31)-c1csc(n1)CC(NC(=O)C1CC1C)C(=O)N1CCCC(N1)C(=O)OCC(C)(C)C2
82.7
